target: 4'-phosphopantetheinyl transferase ffp (Bacillus subtilis); assay: qHTS Assay for Inhibitors of Bacillus subtilis Sfp phosphopantetheinyl transferase (PPTase); conditions: Biochemical Sfp PPTase activity;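 for largest response in the series, negative = inhibition: 0% = enzyme reaction without inhibitor and -100% = no enzyme wells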
About 11,000 (3.5%) of roughly 310,000 compounds were called active. Inconclusive results (about 4%) are left out. This is one part of a sample in which actives are shown more often than they occur.
endpoint: largest response in the series, negative = inhibition (%)

chem smiles: COc1ccc(CCNC(=O)c2cnc(Cl)c(Cl)c2)cc1
recorded measurement: 9
--
chem smiles: COc1ccc(/C=C(/NC(=O)c2ccccc2)C(=O)Nc2cccc(C(=O)O)c2)cc1
recorded measurement: 2.19
--
chem smiles: COc1ccc(C(=O)c2c(C)c(CCC#N)n3ccccc23)c(OC)c1
recorded measurement: 0.761
--
chem smiles: CCOC(OCC)OCC
recorded measurement: -10.1
--
chem smiles: COc1ccc(/C=C(/NC(=O)c2ccco2)C(=O)Nc2ccc(C(C)=O)cc2)cc1
recorded measurement: 0.26
--
chem smiles: Cc1cccc(C(=O)NNC(=O)c2cccc([N+](=O)[O-])c2)c1
recorded measurement: 12.7

====

molecular target: 4'-phosphopantetheinyl transferase ffp (Bacillus subtilis) (UniProt Q9F4F7); assay: qHTS Assay for Inhibitors of Bacillus subtilis Sfp phosphopantetheinyl transferase (PPTase); conditions: Biochemical Sfp PPTase activity; note: potency is the fitted concentration of half-maximal effect
In all, about 310,000 compounds went through this assay and about 11,000 (3.5%) were called active. Not shown: some 4% with an inconclusive outcome. The sample as a whole holds a higher share of actives than the screen did.
Overview of recorded Potency for various molecules

molecule: CC1CCN(C(=S)c2cccc([N+](=O)[O-])c2)CC1
Potency: 44.7 µM (active)
--
molecule: COc1ccc(NC(=O)CSc2nnc(-c3cccs3)n2Cc2ccco2)cc1OC
Potency: 22.4 µM (active)
--
molecule: COC(=O)c1c(-c2ccc(C)cc2)csc1N
Potency: 44.7 µM (active)
--
molecule: O=C(/C=C/c1ccc(Cl)cc1Cl)c1cccnc1
Potency: 31.6 µM (active)
--
molecule: CC(=O)N1C(=O)/C(=C2\SC(=S)N(NC(=O)c3ccc(O)cc3)C2=O)c2ccccc21
Potency: 50.1 µM (active)
--
molecule: COc1ccc(CCNCc2c(-c3ccccc3)n(C)c3ccccc23)cc1
Potency: 79.4 µM (active)
--
molecule: CC1(c2ccccc2Cl)NC(=O)N(CC(=O)NC(=O)NCc2ccco2)C1=O (stereo not drawn)
Potency: 79.4 µM (active)
--
molecule: COc1ccccc1NC(=O)CSc1nc2sc(C)c(C)c2c(=O)n1Cc1ccco1
Potency: 20 µM (active)
--
molecule: COc1ccc(CCN2C(=O)CC(N3CCC(C(N)=O)CC3)C2=O)cc1OC (stereo not drawn)
Potency: 50.1 µM (active)
--
molecule: CCc1c(C)sc(NC(=O)c2cccs2)c1C(N)=O
Potency: 14.1 µM (active)
--
molecule: C=C(C)CNC(=S)N/N=C/c1ccccc1OCC(=O)O
Potency: 12.6 µM (active)
--
molecule: O=C(CSc1nnc(-c2cccnc2)n1Cc1ccco1)c1ccc(Cl)c(Cl)c1
Potency: 28.2 µM (active)
--
molecule: O=C(CSc1nnc(-c2cccs2)n1Cc1ccco1)c1ccc2c(c1)OCO2
Potency: 56.2 µM (active)
--
molecule: O=c1[nH]c(=S)[nH]c2[nH]c(=S)[nH]c12
Potency: 3.16 µM (active)
--
molecule: O=C(CSc1nnc(-c2ccco2)n1CC1CCCO1)c1ccccc1 (stereo not drawn)
Potency: 50.1 µM (active)
--
molecule: O=C(NCc1ccc(Cl)cc1)c1cc2c(nc3sccn32)s1
Potency: 50.1 µM (active)
--
molecule: COc1ccc(-c2cc(C(=O)NC(Cc3c[nH]c4ccccc34)C(=O)O)c(C)o2)cc1OC (stereo not drawn)
Potency: 35.5 µM (active)
--
molecule: O=C(Nc1ccccc1Cl)O/N=C(/c1ccccc1)c1ccccn1
Potency: 79.4 µM (active)
--
molecule: CCOc1ccc(Nc2nc(Cc3nnc(SCC(=O)NC4CCCC4)n3C)cs2)cc1
Potency: 89.1 µM (active)
--
molecule: Cc1ccc(SC(CC(=O)c2ccc(C(C)(C)C)cc2)C(=O)O)cc1 (stereo not drawn)
Potency: 28.2 µM (active)
--
molecule: CCOC(=O)C1=C(CN2CCCCCC2)NC(=O)NC1c1cccc([N+](=O)[O-])c1 (stereo not drawn)
Potency: 89.1 µM (active)
--
molecule: CC1CCN(C(=S)c2cccc(O)c2)CC1
Potency: 25.1 µM (active)
--
molecule: O=C(COC(=O)CCC(=O)c1cccs1)NCc1ccco1
Potency: 35.5 µM (active)

====

target: 4'-phosphopantetheinyl transferase ffp (Bacillus subtilis) (UniProt Q9F4F7); assay: qHTS Assay for Inhibitors of Bacillus subtilis Sfp phosphopantetheinyl transferase (PPTase); details: Biochemical Sfp PPTase activity;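 note: the enzyme is Sfp with the accession as filed and its product quenches rhodamine fluorescence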;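 for largest response in the series, negative = inhibition: 0% = enzyme reaction without inhibitor and -100% = no enzyme wells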
Among all 310,000 compounds or so, about 11,000 (3.5%) were called active. Inconclusive results (about 4%) are left out. The sample holds actives, similar compounds and a random draw of the others, so the mix is not that of the screen.
endpoint: largest response in the series, negative = inhibition (%)

compound: O=C(O)C1CCN(c2ccc([N+](=O)[O-])cc2[N+](=O)[O-])CC1
recorded measurement: 13.6

compound: COc1cccc(C(=O)Nc2nnc(S(=O)(=O)N3CCCCC3)s2)c1
recorded measurement: 6.22

compound: CC1CC(C)CN(C(=O)CCNC(=O)Cn2cnc3ccccc3c2=O)C1 (stereo not given)
recorded measurement: -7.35

compound: Cc1ccc(CNC(=O)[C@@H](NC(=O)Cc2ccccc2)C(C)C)cc1
recorded measurement: 19.7

compound: COc1ccc(N2CCN(c3ccc([N+](=O)[O-])cc3Cl)CC2)cc1
recorded measurement: 2.35

====

Overview of recorded largest response in the series, negative = inhibition for various compounds
Biological target: 4'-phosphopantetheinyl transferase ffp (Bacillus subtilis) (UniProt Q9F4F7)
Assay: qHTS Assay for Inhibitors of Bacillus subtilis Sfp phosphopantetheinyl transferase (PPTase);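 note: the enzyme is Sfp with the accession as filed and its product quenches rhodamine fluorescence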;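 for largest response in the series, negative = inhibition: 0% = enzyme reaction without inhibitor and -100% = no enzyme wells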
Details: Biochemical Sfp PPTase activity
Excerpt: Assay Submitter: Michael Burkart, University of California, San Diego Screening Center PI: Austin, C.P. Screening Center: NIH Chemical Genomics Center [NCGC] […] In search of small molecule Sfp-PPTase inhibitors, a fluorescence quenching assay was developed for detection of Bacillus subtilis Sfp-PPTase enzymatic activity in a miniaturized high-throughput format. […]
Among all 310,000 compounds or so, about 11,000 (3.5%) were called active. Roughly 4% stayed inconclusive and do not appear here. The list comes from a sample in which actives are over-represented; it also holds close analogues and randomly drawn compounds.
endpoint: largest response in the series, negative = inhibition (%)

chem smiles: O=C(COc1ccc(Cl)cc1)Nc1ccc2oc(=O)ccc2c1
recorded measurement: -10.1

chem smiles: Cc1cc(OC(=O)c2ccc(OC(C)C)cc2)c([N+](=O)[O-])c(=O)[nH]1
recorded measurement: 16.6

chem smiles: CC(C)C(=O)Nc1ccc2oc(=O)ccc2c1
recorded measurement: 13.6

chem smiles: Cc1ccccc1NC(=O)CCOc1ccccc1
recorded measurement: 2

chem smiles: COc1ccc(-c2c3c(=O)n(C)c(=O)n(C)c3cn2-c2cccc(OC)c2)cc1
recorded measurement: 3.62

chem smiles: COc1cc(CN2CCCN(C)CC2)c([N+](=O)[O-])cc1OC
recorded measurement: 5.29

====

target: 4'-phosphopantetheinyl transferase ffp (Bacillus subtilis); test: qHTS Assay for Inhibitors of Bacillus subtilis Sfp phosphopantetheinyl transferase (PPTase); conditions: Biochemical Sfp PPTase activity; note: potency is the fitted concentration of half-maximal effect;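 note: the enzyme is Sfp with the accession as filed and its product quenches rhodamine fluorescence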
The campaign covered roughly 310,000 compounds. About 11,000 (3.5%) were called active. Inconclusive results (about 4%) are left out. The entries come from a sample that favours actives as a whole.
Overview of recorded Potency for various molecules
endpoint: Potency

molecule: OCCNc1nc(Nc2ccc(Cl)c(Cl)c2)nc2ccccc12
recorded measurement: 79.4 µM (active)
//
molecule: C=CCSC1=C(C#N)C(c2cc(Br)c(O)c(OC)c2)CC(=O)N1 (stereo unspecified)
recorded measurement: 25.1 µM (active)
//
molecule: Clc1ccccc1-c1cc(NCCN2CCOCC2)ncn1
recorded measurement: 79.4 µM (active)
//
molecule: COCCn1c(C)cc(C2=NNC(=Nc3ccc(F)cc3)SC2)c1C
recorded measurement: 50.1 µM (active)
//
molecule: CCN(CC(=O)Nc1ccc(S(=O)(=O)N2CCCC2)cc1)CC(=O)Nc1cccc(OC)c1
recorded measurement: 79.4 µM (active)
//
molecule: O=C1CCCN1CCCNC(=S)Nc1ccc(F)c(Cl)c1
recorded measurement: 14.1 µM (active)

====

target: 4'-phosphopantetheinyl transferase ffp (Bacillus subtilis); test: qHTS Assay for Inhibitors of Bacillus subtilis Sfp phosphopantetheinyl transferase (PPTase); conditions: Biochemical Sfp PPTase activity; note: potency is the fitted concentration of half-maximal effect;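 note: the enzyme is Sfp with the accession as filed and its product quenches rhodamine fluorescence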
Screen size: about 310,000 compounds; about 11,000 (3.5%) were called active. Not shown: some 4% with an inconclusive outcome. The list comes from a sample in which actives are over-represented; it also holds close analogues and randomly drawn compounds.
Overview of recorded Potency for various molecules

chem smiles: O=C(NC(=S)Nc1ccc2oc(=O)ccc2c1)c1ccc(-c2cccc(Cl)c2Cl)o1
Potency: 79.4 µM (active)
--
chem smiles: Cc1nnc(NC(=O)/C=C/c2ccco2)s1
Potency: 11.2 µM (active)
--
chem smiles: Fc1ccc(/C=N/Nc2nc(-c3cccnc3)nc3ccccc23)cc1
Potency: 31.6 µM (active)
--
chem smiles: Cc1ccc(S/C(=N\S(=O)(=O)c2ccc(Cl)cc2)c2ccccc2)cc1
Potency: 56.2 µM (active)
--
chem smiles: NS(=O)(=O)c1ccc(CCNC(=S)Nc2ccc(S(N)(=O)=O)cc2)cc1
Potency: 20 µM (active)
--
chem smiles: CCC(CC)c1nnc(NC(=O)C2CCN(C(=O)c3ccco3)CC2)s1
Potency: 39.8 µM (active)
--
chem smiles: O=C(c1cccnc1)N(c1cc2sc(=O)oc2c2ccccc12)S(=O)(=O)c1ccccc1
Potency: 3.98 µM (active)
--
chem smiles: Cc1ccc(/C([O-])=C(/C(=S)NCc2ccco2)[n+]2ccccc2)cc1[N+](=O)[O-]
Potency: 25.1 µM (active)
--
chem smiles: CSc1nsc(SC)c1NC(=O)OC1CCCCC1
Potency: 56.2 µM (active)
--
chem smiles: CC(C)Sc1nnc([C@H](Cc2ccccc2)NC(=O)OC(C)(C)C)o1
Potency: 50.1 µM (active)
--
chem smiles: Oc1ccc(/C=N/Nc2ccc(C(F)(F)F)cn2)cc1O
Potency: 28.2 µM (active)

Provenance of the data: PubChem BioAssay AID1490
